Target Or Test System: Retinoid isomerohydrolase (Mus musculus)
Sequence (whole entry): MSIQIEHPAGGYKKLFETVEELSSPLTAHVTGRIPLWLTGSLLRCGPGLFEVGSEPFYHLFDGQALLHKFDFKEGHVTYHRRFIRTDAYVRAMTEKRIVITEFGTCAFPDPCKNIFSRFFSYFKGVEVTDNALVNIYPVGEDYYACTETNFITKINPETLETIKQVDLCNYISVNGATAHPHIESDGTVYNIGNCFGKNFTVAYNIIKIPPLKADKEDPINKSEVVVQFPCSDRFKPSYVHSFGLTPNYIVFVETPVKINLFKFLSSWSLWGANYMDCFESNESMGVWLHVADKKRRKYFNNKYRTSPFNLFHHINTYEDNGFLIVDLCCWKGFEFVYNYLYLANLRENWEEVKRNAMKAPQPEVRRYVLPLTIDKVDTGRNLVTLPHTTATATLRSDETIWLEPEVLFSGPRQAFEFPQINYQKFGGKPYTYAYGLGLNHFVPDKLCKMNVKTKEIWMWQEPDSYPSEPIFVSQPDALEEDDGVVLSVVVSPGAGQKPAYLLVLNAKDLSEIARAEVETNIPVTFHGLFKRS
Assay Remarks: In vivo inhibition of RPE65 in BALB/cJ mouse eye by measuring retinyl ester level per eye at 10 mg/kg,ip administrated and measured after 24 hrs of dark adaptation by HPLC analysis
Format: functional, organism-based
Catalogue of Activity readings, one per entry.
Hi! Could you send only the number? It should be in pmol, unit omitted.

The cases that follow already have their Activity on record.
>>> measured_value("NCCc1cccc(OCC2CCCCC2)c1")
65
>>> measured_value("CC(CN)Cc1ccc(F)c(OCC2CCCCC2)c1 (stereo not given)")
123
>>> measured_value("CNCCC(O)c1cccc(OCC2CCCCC2)c1 (stereo not given)")
215

Recorded Activity (compound CC(CN)Cc1cccc(OCC2CCCCC2)c1 (stereo not given) ): 85.6

Recorded Activity (compound CC(CCN)c1cccc(OCC2CCCCC2)c1 (stereo not given) ): 124

====

Assay Remarks: Drug concentration in mouse aorta by HPLC analysis
Format: ADME, tissue-based
Condition Description: in vitro, read-out: Drug uptake
Outcome Measure: concentration (µM)
Hi! Could you send only the number? It should be in µM, unit omitted.

Recorded concentration (compound CNCCC(O)c1cccc(OCC2CCCCC2)c1 (stereo unspecified) ): 100

====

Catalogue of IC50 readings, one per entry.
Target Or Test System: Retinoid isomerohydrolase (Bos taurus, UniProt Q28175)
Sequence (Q28175 whole entry): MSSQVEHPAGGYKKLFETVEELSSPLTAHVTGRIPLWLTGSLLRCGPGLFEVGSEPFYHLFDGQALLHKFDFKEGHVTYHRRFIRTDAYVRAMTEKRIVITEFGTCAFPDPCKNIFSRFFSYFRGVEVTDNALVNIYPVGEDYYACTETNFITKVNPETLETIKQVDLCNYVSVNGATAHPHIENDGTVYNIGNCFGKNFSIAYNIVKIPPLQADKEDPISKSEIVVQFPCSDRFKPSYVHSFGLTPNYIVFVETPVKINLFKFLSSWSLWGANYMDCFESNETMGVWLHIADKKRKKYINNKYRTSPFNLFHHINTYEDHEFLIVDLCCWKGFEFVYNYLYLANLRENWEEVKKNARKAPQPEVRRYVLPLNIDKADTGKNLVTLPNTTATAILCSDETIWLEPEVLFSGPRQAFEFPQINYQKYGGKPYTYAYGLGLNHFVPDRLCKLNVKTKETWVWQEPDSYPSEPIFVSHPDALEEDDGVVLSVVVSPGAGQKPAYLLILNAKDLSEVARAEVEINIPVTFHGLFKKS
Assay Remarks: Inhibition of RPE65 in bovine microsomes assessed as reduction on 11-cis-retinol production incubated for 1 hr by HPLC analysis
Design: species or system Microsome
Condition Description: read-out: IC50
Hi! Could you send only the number? It should be in nM, unit omitted.

>>> measured_value("CC(CN)Cc1cccc(OCC2CCCCC2)c1 (stereo not drawn)")
390

Recorded IC50 (compound CNCCC(O)c1cccc(OCC2CCCCC2)c1 (stereo not drawn) ): 290

Recorded IC50 (compound NCCC(O)c1ccc(OCC2CCCCC2)cc1 (stereo not drawn) ): 8080

====

Target Or Test System: Retinoid isomerohydrolase (Mus musculus)
Assay Remarks: In vivo inhibition of RPE65 in BALB/cJ mouse eye by measuring 11-cis-retinal level per eye at 10 mg/kg,ip administrated and measured after 24 hrs of dark adaptation by HPLC analysis
Format: functional, organism-based
Outcome Measure: Activity (pmol)
Hi! Could you send only the number? It should be in pmol, unit omitted.

Bench note, Retinoid isomerohydrolase (Mus musculus): CC(CCN)c1cccc(OCC2CCCCC2)c1 (stereo not given) , Activity reads 370

Bench note, Retinoid isomerohydrolase (Mus musculus): CC(CN)Cc1cccc(OCC2CCCCC2)c1 (stereo not given) , Activity reads 254

Bench note, Retinoid isomerohydrolase (Mus musculus): CC(CN)Cc1ccc(F)c(OCC2CCCCC2)c1 (stereo not given) , Activity reads 398

Bench note, Retinoid isomerohydrolase (Mus musculus): CNCCC(O)c1cccc(OCC2CCCCC2)c1 (stereo not given) , Activity reads 202

Bench note, Retinoid isomerohydrolase (Mus musculus): NCCc1cccc(OCC2CCCCC2)c1 , Activity reads 406
